Cited source for all entries: patent US12617771B2

# Test system: Chilo suppressalis GSTs
# assay_details: Inhibition of total GSTs enzyme of Chilo suppressalis (CDNB method)
# Type: biochemical
# assay_setup: 100 μM
# reported 100 μM Inhibition rate %; entries follow
assay_endpoint: 100 μM Inhibition rate % (%)

CN(C)S(=O)(=O)c1ccc(C(=O)NNC(=O)c2cc(-c3ccccc3)nn2-c2ccccc2)cc1 :: 13.81
CCCCCCSC[C@H](NC(=O)CC[C@H](N)C(=O)O)C(=O)NCC(=O)O [GTX, S-Hexylglutathione, reference compound] :: 99.97
COc1ccccc1OCC(=O)NNC(=O)c1cc(-c2ccccc2)nn1-c1ccccc1 :: 23.00
N#Cc1ccc(OCC(=O)NNC(=O)c2cc(-c3ccccc3)nn2-c2ccccc2)cc1 :: 22.03
